Data origin: the supplement of paper PMC13380429

Give cell viability for every item shown.
# Test system: HepG2
# test.description: cell viability relative to DMSO; higher = less toxic
# conditions: 72 h; 1 nM
One number for each entry, in %.

CCC(C)(Oc1ccc(C2(c3ccc(OC(C)(CC)C(=O)O)cc3)CCCCC2)cc1)C(=O)O (centres undefined) [clinofibrate] ... 93.9
COc1cc2c(cc1-c1c(C)noc1C)ncc1[nH]c(=O)n([C@H](C)c3ccccn3)c12 ... 104
C/C1=C/C[C@@H](/C(C)=C/c2csc(C)n2)OC(=O)C[C@H](O)C(C)(C)C(=O)[C@H](C)[C@@H](O)[C@@H](C)CCC1 ... 91.8

Noted for Cc1cc(-c2cc(O)ccc2Cl)cc2nnc(Nc3ccc(OCCN4CCCC4)cc3)nc12 : its cell viability reads 94.5
